Every entry's value here was drawn from patent US12435068B2.

What EC50 was measured for each of the following?
# System: Dirofilaria immitis microfilariae
# Assay Overview: In Vitro Assay 2: Dirofilaria immitis microfilariae (DIROIM L1) motility
# Format: cell-based
# Measurement Parameters: 72 h, read-out: EC50 ppm
State the answer as a number, implicitly in µg/mL.

In: // lookup EC50 | system=Dirofilaria immitis microfilariae | key= O=C(N[C@H]1CCOc2ccccc21)c1c(N2CCOCC2)c2cccc(-c3cc(Cl)cc(Cl)c3)c2[nH]c1=O
Out: 0.64

In: // lookup EC50 | system=Dirofilaria immitis microfilariae | key= O=C(N[C@H]1CCOc2ccccc21)c1ccc2nc(-c3cccc(Cl)c3Cl)cnc2c1
Out: 0.32

In: // lookup EC50 | system=Dirofilaria immitis microfilariae | key= CC(C)c1c(C(=O)N[C@H]2CCOc3ccccc32)sc2c(-c3cccc(Cl)c3Cl)cccc12
Out: 0.01

* * *

# Target: C. elegans Slo-1a (Caenorhabditis elegans, UniProt Q95V25)
# Sequence (Q95V25 whole entry): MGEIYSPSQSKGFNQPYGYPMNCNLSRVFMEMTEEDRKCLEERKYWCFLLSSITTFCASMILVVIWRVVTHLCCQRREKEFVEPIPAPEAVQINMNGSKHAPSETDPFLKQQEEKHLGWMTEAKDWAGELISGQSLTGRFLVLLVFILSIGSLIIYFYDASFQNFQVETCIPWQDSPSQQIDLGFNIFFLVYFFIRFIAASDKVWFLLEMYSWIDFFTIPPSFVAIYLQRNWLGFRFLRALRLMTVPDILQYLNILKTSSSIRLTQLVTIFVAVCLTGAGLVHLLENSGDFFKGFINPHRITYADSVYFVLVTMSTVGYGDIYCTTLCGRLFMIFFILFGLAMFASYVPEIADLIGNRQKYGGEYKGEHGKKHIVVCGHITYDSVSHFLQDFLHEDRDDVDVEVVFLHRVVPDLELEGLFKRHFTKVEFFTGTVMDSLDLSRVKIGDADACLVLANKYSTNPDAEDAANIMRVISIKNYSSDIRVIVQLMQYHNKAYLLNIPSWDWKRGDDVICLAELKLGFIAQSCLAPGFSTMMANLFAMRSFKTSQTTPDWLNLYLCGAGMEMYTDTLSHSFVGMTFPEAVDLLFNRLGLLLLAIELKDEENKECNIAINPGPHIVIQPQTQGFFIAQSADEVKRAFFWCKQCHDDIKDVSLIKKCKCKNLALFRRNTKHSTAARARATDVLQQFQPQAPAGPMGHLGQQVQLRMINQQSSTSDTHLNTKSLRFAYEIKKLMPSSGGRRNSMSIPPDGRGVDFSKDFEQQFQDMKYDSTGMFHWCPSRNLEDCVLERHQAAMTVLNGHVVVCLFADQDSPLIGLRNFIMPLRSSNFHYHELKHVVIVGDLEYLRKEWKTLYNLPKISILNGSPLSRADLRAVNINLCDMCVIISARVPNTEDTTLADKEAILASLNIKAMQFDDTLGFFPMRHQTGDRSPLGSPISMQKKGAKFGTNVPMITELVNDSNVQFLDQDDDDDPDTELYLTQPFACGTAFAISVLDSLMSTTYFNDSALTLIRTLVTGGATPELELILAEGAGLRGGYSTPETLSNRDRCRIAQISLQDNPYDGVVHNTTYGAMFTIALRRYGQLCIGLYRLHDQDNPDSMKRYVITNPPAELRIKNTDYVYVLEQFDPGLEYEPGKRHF
pEC50: −log10 of the molar value.
Kindly return Satisfied if reported pEC50 is no lower than 8; return Not satisfied if it is lower.

In: Dear colleague, could you confirm whether O=C(N[C@H]1CCOc2ccccc21)c1ccc2nc(-c3cccc(C(F)(F)F)c3Cl)cnc2c1 has pEC50 at or above 8?
Out: Not satisfied

In: Dear colleague, could you confirm whether O=C(N[C@H]1CCOc2ccccc21)c1sc2c(-c3cccc(Cl)c3Cl)cccc2c1Cl has pEC50 at or above 8?
Out: Not satisfied

In: Dear colleague, could you confirm whether CC(C)c1c(C(=O)N[C@H]2CCOc3ccccc32)sc2c(-c3cccc(Cl)c3Cl)cccc12 has pEC50 at or above 8?
Out: Satisfied

In: Dear colleague, could you confirm whether CC(C)c1c(C(=O)N[C@H]2CCOc3ccccc32)sc2c(-c3cccc(Cl)c3)cccc12 has pEC50 at or above 8?
Out: Satisfied

In: Dear colleague, could you confirm whether CC(C)C1=C(C(=O)N[C@H]2CCOc3ccccc32)COc2c1cccc2-c1cc(Cl)cc(Cl)c1 has pEC50 at or above 8?
Out: Satisfied

In: Dear colleague, could you confirm whether COc1c(C(=O)N[C@H]2CCOc3ccccc32)sc2c(-c3cccc(Cl)c3)cccc12 has pEC50 at or above 8?
Out: Not satisfied

* * *

What pEC50 was measured for each of the following?
Would you please state pEC50, meaning minus log10 of the concentration in mol/L, as a bare number?

In: // lookup pEC50 | system=C. elegans Slo-1a (Caenorhabditis elegans) | key= COc1c(C(=O)N[C@H]2CCOc3ccccc32)sc2c(-c3cc(Cl)cc(Cl)c3)cccc12
Out: 6.60

In: // lookup pEC50 | system=C. elegans Slo-1a (Caenorhabditis elegans) | key= O=C(N[C@H]1CCOc2ccccc21)c1ccc2c(-c3cccc(Cl)c3Cl)cccc2c1
Out: 7.10

In: // lookup pEC50 | system=C. elegans Slo-1a (Caenorhabditis elegans) | key= CC(C)n1c(C(=O)N[C@H]2CCOc3ccccc32)cc2c(-c3cc(F)cc(F)c3F)cccc21
Out: 7.80

In: // lookup pEC50 | system=C. elegans Slo-1a (Caenorhabditis elegans) | key= O=C(N[C@H]1CCOc2ccccc21)c1sc2c(-c3cccc(Cl)c3Cl)ccc(F)c2c1N1CCOCC1
Out: 7.30

In: // lookup pEC50 | system=C. elegans Slo-1a (Caenorhabditis elegans) | key= O=C(N[C@H]1CCOc2ccccc21)C1=Cc2cccc(-c3cccc(Cl)c3Cl)c2OC1
Out: 8.30

In: // lookup pEC50 | system=C. elegans Slo-1a (Caenorhabditis elegans) | key= CN(C)c1c(C(=O)N[C@H]2CCOc3ccccc32)ncc2c1ccc(=O)n2Cc1ccc(Cl)cc1
Out: 6.00

In: // lookup pEC50 | system=C. elegans Slo-1a (Caenorhabditis elegans) | key= O=C(N[C@H]1CCOc2ccccc21)c1cc2cccc(-c3cccc(Cl)c3Cl)c2oc1=O
Out: 7.30

In: // lookup pEC50 | system=C. elegans Slo-1a (Caenorhabditis elegans) | key= CC(C)n1c(C(=O)N[C@H]2CCOc3ccccc32)cc2c(-c3cc(Cl)cc(Cl)c3)cccc21
Out: 7.60

In: // lookup pEC50 | system=C. elegans Slo-1a (Caenorhabditis elegans) | key= CC(C)n1c(C(=O)N[C@H]2CCOc3ccccc32)cc2c(-c3cccc(Cl)c3Cl)cccc21
Out: 7.70

In: // lookup pEC50 | system=C. elegans Slo-1a (Caenorhabditis elegans) | key= CN(C)c1c(C(=O)N[C@H]2CCOc3ccccc32)sc2c(-c3cccc(Cl)c3)cccc12
Out: 7.50

In: // lookup pEC50 | system=C. elegans Slo-1a (Caenorhabditis elegans) | key= COc1c(C(=O)N[C@H]2CCOc3ccccc32)sc2c(-c3cccc(Cl)c3)nccc12
Out: 6.10

In: // lookup pEC50 | system=C. elegans Slo-1a (Caenorhabditis elegans) | key= CC(C)c1c(C(=O)N[C@H]2CCc3ccccc32)ccc2c1nnn2-c1ccccc1
Out: 5.70

In: // lookup pEC50 | system=C. elegans Slo-1a (Caenorhabditis elegans) | key= O=C(N[C@H]1CCOc2ccccc21)C1=Cc2cccc(-c3cc(Cl)cc(Cl)c3)c2OC1
Out: 7.70

In: // lookup pEC50 | system=C. elegans Slo-1a (Caenorhabditis elegans) | key= CC(C)c1c(C(=O)N[C@H]2CCc3ccccc32)ccc2c1nnn2-c1cccc(Cl)c1
Out: 5.00
